In this section we review reported viability at 28.5 h, 10 µM values for a set of compounds.
Test Method Notes: in vitro
Condition Set: human, hela cells, % viability

{"Compound": "Cc1c(C)n(C)c2nc(N3CCCC3)nc(N3CCCC3)c12 [CBK016683C]", "viability at 28.5 h, 10 µM": "90.1%"}
{"Compound": "Cc1cc(C)n(C2CN(C(=O)NCCCOc3cccnc3)C2)n1", "viability at 28.5 h, 10 µM": "84.1%"}
{"Compound": "CCc1nc2ccc(NC(=O)CCCc3ccncc3)cc2[nH]1", "viability at 28.5 h, 10 µM": "111%"}
{"Compound": "Cc1[nH]c2ccccc2c1C(c1ccccc1OCC(=O)O)c1c(C)[nH]c2ccccc12", "viability at 28.5 h, 10 µM": "109%"}
{"Compound": "CCOC(=O)CSc1nc(C)cc(Oc2ccc(=O)n(C)n2)n1", "viability at 28.5 h, 10 µM": "101%"}
{"Compound": "CC(=C\\C(=O)O)/C(=C/c1ccncc1)C(=O)O [CBK278265N]", "viability at 28.5 h, 10 µM": "116%"}
{"Compound": "CN1CCN(c2ccc3ccn(S(=O)(=O)c4ccc([N+](=O)[O-])cc4)c3n2)CC1 [CBK070757C]", "viability at 28.5 h, 10 µM": "104%"}
{"Compound": "COc1ccc(F)c(CN(CC(C)(C)CN)C(=O)Nc2ccc(C(C)(C)C)cc2)c1 [CBK002461C]", "viability at 28.5 h, 10 µM": "94%"}
{"Compound": "O=C(c1ccccc1)N1CCCCC1", "viability at 28.5 h, 10 µM": "99.1%"}
